List of B1R Ant. h [10 μM] % Inhibition values.
Target: human bradykinin 1 receptor (B1R) (Homo sapiens, UniProt P46663)
Construct: expressed in transfected cells; host or cells: CHO K1 cells
Sequence (P46663 whole entry): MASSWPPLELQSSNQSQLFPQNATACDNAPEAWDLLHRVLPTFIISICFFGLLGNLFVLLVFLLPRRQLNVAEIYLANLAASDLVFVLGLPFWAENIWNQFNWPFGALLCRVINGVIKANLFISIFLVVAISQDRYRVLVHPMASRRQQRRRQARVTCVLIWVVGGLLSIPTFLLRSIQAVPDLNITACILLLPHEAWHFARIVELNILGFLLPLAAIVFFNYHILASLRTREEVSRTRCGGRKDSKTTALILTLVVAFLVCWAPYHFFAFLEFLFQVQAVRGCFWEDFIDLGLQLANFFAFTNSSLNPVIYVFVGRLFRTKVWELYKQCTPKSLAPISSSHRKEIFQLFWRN
Assay: Functional investigation on the human bradykinin 1 receptor (B1R), Ca2+ FLIPR assay in CHO K1 hB1R cells
Format: cell-based
Settings: B1R antagonism human; test substance 10 μM; Ca2+ FLIPR, CHO K1 hB1R cells
Entry rule: numbers only, all in %.

Consider the following illustrative entries.
Which measured B1R Ant. h [10 μM] % Inhibition value corresponds to COc1ccc(S(=O)(=O)N(C)CCOCC(=O)NCC2CCC(C(c3ccc(F)cc3)N(C)C)CC2)cc1 (centres unmarked) ?
46

Which measured B1R Ant. h [10 μM] % Inhibition value corresponds to COc1cc(C)c(S(=O)(=O)N2CCCC(OCC(=O)NCC3CCC(C(c4ccc(Cl)cc4)N(C)C)CC3)C2)c(C)c1C (centres unmarked) ?
25

Which measured B1R Ant. h [10 μM] % Inhibition value corresponds to CN(C)C(c1ccc(F)cc1)C1CCC(CCNC(=O)COC2CCN(S(=O)(=O)c3ccc(F)cc3)C2)CC1 (centres unmarked) ?
−2

Which measured B1R Ant. h [10 μM] % Inhibition value corresponds to COc1ccc(S(=O)(=O)N2CCCCC2COCC(=O)NC2CCC(C(c3ccc(F)cc3)N(C)C)CC2)c(OC)c1 (centres unmarked) ?
−11

Attention now turns to another entry.
Which measured B1R Ant. h [10 μM] % Inhibition value corresponds to COc1cc(C)c(S(=O)(=O)N(CCOCC(=O)NCCC2CCC(C(c3ccc(F)cc3)N(C)C)CC2)Cc2ccccc2)c(C)c1C (centres unmarked) ?
23

----------
Molecular target: serotonin (5-HT) reuptake (Rattus norvegicus)
Construct: synaptosomes are freshly isolated from areas of the rat brain; from tissue; host or cells: rat brain synaptosomes (P2 fraction)
Sequence (P31652 whole entry): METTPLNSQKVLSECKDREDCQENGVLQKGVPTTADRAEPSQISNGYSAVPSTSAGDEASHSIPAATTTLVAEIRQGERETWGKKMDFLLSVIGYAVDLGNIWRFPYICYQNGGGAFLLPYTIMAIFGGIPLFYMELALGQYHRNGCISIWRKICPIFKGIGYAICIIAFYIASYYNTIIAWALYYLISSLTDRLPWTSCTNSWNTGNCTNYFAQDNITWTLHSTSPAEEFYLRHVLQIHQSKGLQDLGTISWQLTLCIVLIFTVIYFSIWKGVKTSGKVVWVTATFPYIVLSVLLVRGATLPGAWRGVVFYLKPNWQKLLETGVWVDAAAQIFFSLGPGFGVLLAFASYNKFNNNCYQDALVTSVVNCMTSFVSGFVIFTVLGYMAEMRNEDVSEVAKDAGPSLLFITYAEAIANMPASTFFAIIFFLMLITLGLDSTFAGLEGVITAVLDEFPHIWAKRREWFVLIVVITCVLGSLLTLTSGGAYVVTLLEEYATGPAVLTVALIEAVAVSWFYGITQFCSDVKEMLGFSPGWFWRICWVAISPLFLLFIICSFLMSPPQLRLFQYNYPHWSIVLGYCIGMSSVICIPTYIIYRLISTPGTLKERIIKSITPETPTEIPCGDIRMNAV
Experiment: Inhibition of serotonin (5HT) reuptake in synaptosomes from rat brain
Type: biochemical
Conditions: test concentration of 10 μM; read-out: 5-HT (inhibition of reuptake of serotonin, % inhibition)
Method: Binding data of the compounds on the μ opioid receptor and data on the inhibition of reuptake of serotonin (5-HT) are given in Table 1. The data for the μ receptor were measured at a test concentration of 1 μM, and those for the serotonin reuptake at 10 μM. The values are stated in % inhibition. Inhibition of Serotonin (5HT) Reuptake In order to be able to carry out these in vitro studies, synaptosomes are freshly isolated from areas of the rat brain. […]
READOUT KIND: inhibition at 10 µM
Quote the value and follow it with the unit of measurement.

Which measured inhibition at 10 µM value corresponds to CN(C)C(c1cccs1)C1CCC(CCNC(=O)COC2CCCN(S(=O)(=O)c3ccccc3)C2)CC1 (stereo not shown) ?
97%

Which measured inhibition at 10 µM value corresponds to COc1ccc(S(=O)(=O)N2CCCCC2CCOCC(=O)NC2CCC(C(c3ccccc3)N(C)C)CC2)cc1 (stereo not shown) ?
92%

Which measured inhibition at 10 µM value corresponds to COc1cc(C)c(S(=O)(=O)N2CCN(CCOCC(=O)NCCC3CCC(C(c4cccc(F)c4)N(C)C)CC3)CC2)c(C)c1C (stereo not shown) ?
95%

Which measured inhibition at 10 µM value corresponds to COc1ccc(S(=O)(=O)N2Cc3ccccc3CC2COCC(=O)NCCC2CCC(C(c3cccc(F)c3)N(C)C)CC2)cc1 (stereo not shown) ?
79%

Which measured inhibition at 10 µM value corresponds to CC(Oc1ccccc1)C(=O)NC1CCC(C(c2ccccc2)N(C)C)CC1 (stereo not shown) ?
46%

Which measured inhibition at 10 µM value corresponds to COc1cc(C)c(S(=O)(=O)N(CCOCC(=O)NCCC2CCC(C(c3cccs3)N(C)C)CC2)Cc2ccccc2)c(C)c1 (stereo not shown) ?
91%

Attention now turns to another entry.
Which measured inhibition at 10 µM value corresponds to COc1cc(C)c(S(=O)(=O)N2CCC(OCC(=O)NCCC3CCC(C(c4cccs4)N(C)C)CC3)C2)c(C)c1C (stereo not shown) ?
98%

Data origin, for the record: patent US8106055B2
